Where do the numbers come from? From ChEMBL document CHEMBL3272267.

Test system: Rattus norvegicus
experimentalDetails: Antiinflammatory activity in Wistar rat assessed as inhibition of carrageenan-induced hind paw edema at 100 mg/kg, po administered as gum arabic suspension 30 mins prior to carrageenin injection measured 3 hrs post-carrageenin injection
Format: functional
The threshold is inclusive: inhibition in vivo at 100 mg/kg of exactly 20% counts as true; values below receive false.

CCCCOc1cc(C(=O)N2CCCC2)nn1-c1ccccc1
false

Now look at this entry.
# check: inhibition in vivo at 100 mg/kg of CCCCOc1cc(C(=O)N2CCN(CCO)CC2)nn1-c1ccccc1 is greater than or equal to 20% true

* * *

Tested on: Mus musculus
experimentalDetails: Hypnotic activity in ip dosed ddN mouse assessed as loss of righting reflex administered as gum arabic suspension measured within 60 mins
Type: functional
observable: HD50 (mg/kg)
Please respond with the number in mg/kg and leave the unit unwritten.

CCCCOc1cc(C(=O)NC)nn1-c1ccccc1
48
COc1cc(C(=O)N(C)C)nn1-c1ccccc1
90
CCCCOc1cc(C(=O)N(C)C)nn1-c1ccccc1
33

Lab note: measured HD50 of CCCCOc1cc(C(=O)NCC)nn1-c1ccccc1 was 44

Lab note: measured HD50 of CN1C(=O)NC(=O)C(C)(C2=CCCCC2)C1=O (stereo unspecified) [HEXOBARBITAL] was 91

Lab note: measured HD50 of CCOc1cc(C(=O)N(C)C)nn1-c1ccccc1 was 26

* * *

Tested on: Rattus norvegicus
experimentalDetails: Antiinflammatory activity in Wistar rat assessed as inhibition of carrageenan-induced hind paw edema at 100 mg/kg, po administered as gum arabic suspension 30 mins prior to carrageenin injection measured 3 hrs post-carrageenin injection
Assay type: functional
Each entry below carries its reported inhibition in vivo at 100 mg/kg.
Please respond with the number in % and leave the unit unwritten.

CCCCOc1cc(C(=O)N(C)C)nn1-c1ccccc1
18.7
CCCCOc1cc(C(=O)NCCCN(C)C)nn1-c1ccccc1
29.8
CCCCOc1cc(C(=O)N2CCN(C)CC2)nn1-c1ccccc1
32.3

// moving on: another record for inhibition in vivo at 100 mg/kg
Lab note: measured inhibition in vivo at 100 mg/kg of COc1cc(C(=O)N2CCCCC2)nn1-c1ccccc1 was 28.2

* * *

Tested on: Rattus norvegicus
experimentalDetails: Antiinflammatory activity in Wistar rat assessed as inhibition of carrageenan-induced hind paw edema at 100 mg/kg, po administered as gum arabic suspension 30 mins prior to carrageenin injection measured 3 hrs post-carrageenin injection
Type: functional
Each entry below carries its reported inhibition in vivo at 100 mg/kg.
Please respond with the number in % and leave the unit unwritten.

Form field inhibition in vivo at 100 mg/kg for item CCCCCOc1cc(C(=O)N(C)C)nn1-c1ccccc1 on Rattus norvegicus: 20

Form field inhibition in vivo at 100 mg/kg for item CCCCOc1cc(C(=O)N2CCN(CCOC(=O)c3ccccc3)CC2)nn1-c1ccccc1 on Rattus norvegicus: 5.9

Form field inhibition in vivo at 100 mg/kg for item CCCCOc1cc(C(=O)NCCN(CC)CC)nn1-c1ccccc1 on Rattus norvegicus: 23.6

Form field inhibition in vivo at 100 mg/kg for item CCCCOc1cc(C(=O)NCCO)nn1-c1ccccc1 on Rattus norvegicus: 61.2
